Recorded growth by entry
Test system: M14 melanoma
measurement.description: NCI-60 one-dose screen, 48 h (100 = growth as untreated, 0 = no growth, -100 = all killed)
applied.conditions: 10 µM unless noted
This is part of a sample that, as a whole, favours compounds with a hit. Of some 83,000 tested, about 20% had one in any assay.
Numbers only here, please. The scale is %.

Worked examples follow.
>  <compound>
N#Cc1ccc2nc[nH]c2c1

>  <reported.measurement>
107

$$$$
>  <compound>
CCOC(=O)C(C#N)=C1CCN(C)CC1

>  <reported.measurement>
105

$$$$
>  <compound>
CCCCN(C(=O)CC)c1ccccc1

>  <reported.measurement>
91.8

$$$$
>  <compound>
O=S(Cc1ccccc1)/C(=C/NC(=S)Nc1cc(Cl)ccc1Cl)c1ccccc1 (stereo unspecified)

>  <reported.measurement>
96.8

$$$$
>  <compound>
Oc1cc2ccccc2c(-c2c(O)c(O)cc3ccccc23)c1O

>  <reported.measurement>
25

$$$$

Then this compound:
Q: I would be grateful if you could share the reported growth for NC(CO)(CO)c1ccccc1 .
Ans: 94.9
